Reported pEC50 values for a set of binders
test system: LHRH receptor (LHRH binding sites) on EFO-27 human ovarian cancer cells (human)
method summary: competition with [125I-Tyr8]BRU-2477, EFO-27 cells
The value called pEC50 is obtained by taking minus log10 of the concentration in mol/L.

- XRWSHXWXPX (N-terminal DO3A10CM; Damfe4 at 1; Darg at 6; Bpa4 at 8; azaGly-NH2 at 10) [BRU-2997]: 6.48

Would you kindly look at the next entry?
Query: Entry XRWSHXWXP (N-terminal DO3A10CM; Dnal2 at 1; Darg at 6; Bpa4 at 8; C-terminal Az23m2po-NH2 at 10) [BRU-3021] has what pEC50?
Result: 6.30
